Biological target: T1, recombinant mouse LRP5-His chimera (mouse, UniProt Q91VN0 31-1383)
T1 construct: extracellular domain; not shown: His tag
T1 sequence (looked up): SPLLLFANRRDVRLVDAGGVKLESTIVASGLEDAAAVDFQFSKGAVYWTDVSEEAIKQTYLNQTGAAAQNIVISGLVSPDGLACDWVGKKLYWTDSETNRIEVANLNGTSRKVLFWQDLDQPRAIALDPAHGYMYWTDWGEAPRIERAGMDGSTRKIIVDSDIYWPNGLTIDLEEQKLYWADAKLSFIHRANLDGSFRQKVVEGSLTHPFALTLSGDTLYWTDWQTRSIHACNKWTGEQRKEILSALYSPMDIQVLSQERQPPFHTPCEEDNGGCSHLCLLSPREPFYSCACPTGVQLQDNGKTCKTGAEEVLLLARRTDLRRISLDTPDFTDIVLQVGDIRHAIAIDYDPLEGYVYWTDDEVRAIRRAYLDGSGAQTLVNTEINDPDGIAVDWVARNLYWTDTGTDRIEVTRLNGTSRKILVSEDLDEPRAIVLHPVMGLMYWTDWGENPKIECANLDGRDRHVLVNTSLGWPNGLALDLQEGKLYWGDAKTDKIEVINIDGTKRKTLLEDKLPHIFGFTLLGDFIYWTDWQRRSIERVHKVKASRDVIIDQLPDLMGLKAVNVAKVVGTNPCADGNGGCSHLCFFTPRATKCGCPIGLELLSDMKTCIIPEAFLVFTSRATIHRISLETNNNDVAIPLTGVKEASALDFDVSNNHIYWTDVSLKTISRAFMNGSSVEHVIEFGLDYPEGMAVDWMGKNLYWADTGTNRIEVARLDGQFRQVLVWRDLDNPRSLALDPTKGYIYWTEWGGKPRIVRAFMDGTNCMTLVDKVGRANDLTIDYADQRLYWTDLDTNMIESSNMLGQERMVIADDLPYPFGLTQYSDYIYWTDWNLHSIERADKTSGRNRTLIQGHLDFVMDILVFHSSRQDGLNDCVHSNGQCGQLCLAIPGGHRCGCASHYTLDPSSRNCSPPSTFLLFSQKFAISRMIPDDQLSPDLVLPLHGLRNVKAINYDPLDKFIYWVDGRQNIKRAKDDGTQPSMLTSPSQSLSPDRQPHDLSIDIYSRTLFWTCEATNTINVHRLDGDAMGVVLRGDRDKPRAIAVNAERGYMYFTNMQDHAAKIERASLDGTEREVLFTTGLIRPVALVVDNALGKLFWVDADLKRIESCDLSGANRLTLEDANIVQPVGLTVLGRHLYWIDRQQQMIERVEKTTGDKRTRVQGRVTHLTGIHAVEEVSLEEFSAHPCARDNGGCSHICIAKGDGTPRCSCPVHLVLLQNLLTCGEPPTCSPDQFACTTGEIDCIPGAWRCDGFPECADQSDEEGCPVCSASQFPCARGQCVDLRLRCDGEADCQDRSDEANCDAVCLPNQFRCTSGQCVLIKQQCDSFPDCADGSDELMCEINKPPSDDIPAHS
Experiment: single-point ELISA, IgG1 on coated antigen
measuredMetric: binding result

LRP6-E3 IgG1 antibody (antibody, V domains shown, Tested as purified full length IgG1) VH: EVQLVESGGGLVQPGGSLRLSCAASGFNLYYYSMHWVRQAPGKGLEWVASIYSSYGYTYYADSVKGRFTISADTSKNTAYLQMNSLRAEDTAVYYCARYAGYYYYPWAYYGWPFSGLDYWGQGTLVTVSS VL: DIQMTQSPSSLSASVGDRVTITCRASQSVSSAVAWYQQKPGKAPKLLIYSASSLYSGVPSRFSGSRSGTDFTLTISSLQPEDFATYYCQQAGSAPYHLITFGQGTKVEIKR ... no binding
LRP6-B6 IgG1 antibody (antibody, V domains shown, Tested as purified full length IgG1) VH: EVQLVESGGGLVQPGGSLRLSCAASGFNISYSSIHWVRQAPGKGLEWVASISPYYGYTYYADSVKGRFTISADTSKNTAYLQMNSLRAEDTAVYYCARSSYFPWFSAMDYWGQGTLVTVSS VL: DIQMTQSPSSLSASVGDRVTITCRASQSVSSAVAWYQQKPGKAPKLLIYSASSLYSGVPSRFSGSRSGTDFTLTISSLQPEDFATYYCQQYYFLITFGQGTKVEIKR ... no binding
